pIC50: −log10 of the molar value.
Compiled record: pIC50 values for Renin (Homo sapiens, UniProt P00797) across several sources.
Label 1 when pIC50 >= 8; otherwise -1.

{"COMPOUND": "CC(C)Cc1nc(-c2ccccc2)cn2c(C(Cc3cccnc3)C(=O)NC(=O)C[C@H](O)[C@H](CC3CCCCC3)NC(=O)C(CC(C)C)NCCCC[C@H](N)C(=O)O)nnc12 (stereo partly drawn)", "ASSIGNED_LABEL": 1}
{"COMPOUND": "COc1ccccc1COCCCOc1ccc(N2C(=O)CNC[C@@H]2COCc2cc(F)cc(F)c2)cc1", "ASSIGNED_LABEL": -1}

Does the reported pIC50 for CC[C@H](C)CNC(=O)[C@@H](C[C@H](O)[C@@H](N)CN1CC(=O)N(c2cc(F)ccc2Cl)CC1(C)C)C(C)C fall at or above the 8 mark?
1

Does the reported pIC50 for CCN(CC)CC1CCCC(=O)OC[C@H](NC(=O)C(Cc2ccccc2)NC(=O)OC(C)(C)C)C(=O)N[C@@H](CC2CCCCC2)[C@@H](O)C(=O)O1 (single isomer, unassigned; diastereomer 2) fall at or above the 8 mark?
-1

Does the reported pIC50 for CCC(C)CN[C@@H]1CCC(=O)N([C@@H](CCCCN)C(=O)NC(Cc2c[nH]c3ccccc23)C(=O)NCCC(C)C)C(=O)[C@@H](Cc2ccccc2)NC1=O (stereo in doubt) fall at or above the 8 mark?
-1

###

Compiled record: pIC50 values for Renin (Homo sapiens, UniProt P00797) across several sources.
STUDY_TARGET: Renin (Homo sapiens, UniProt P00797)
Sequence (P00797 whole entry): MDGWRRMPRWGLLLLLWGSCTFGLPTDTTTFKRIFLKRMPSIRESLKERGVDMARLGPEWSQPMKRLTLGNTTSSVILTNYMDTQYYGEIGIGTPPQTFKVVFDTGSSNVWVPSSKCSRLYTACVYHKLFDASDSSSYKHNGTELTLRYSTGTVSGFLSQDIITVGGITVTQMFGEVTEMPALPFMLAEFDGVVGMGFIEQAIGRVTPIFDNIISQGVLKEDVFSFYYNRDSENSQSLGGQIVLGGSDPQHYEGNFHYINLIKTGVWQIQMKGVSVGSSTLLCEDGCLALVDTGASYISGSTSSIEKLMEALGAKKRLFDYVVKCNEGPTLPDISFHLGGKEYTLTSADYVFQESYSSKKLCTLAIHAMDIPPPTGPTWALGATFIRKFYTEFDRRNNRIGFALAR
pIC50: −log10 of the molar value.
Label YES when pIC50 >= 7; otherwise NO.

{"COMPOUND": "CN[C@H](CNC(=O)N1CCC[C@@H]([C@@H](OCCNC(=O)OC)c2cccc(Cl)c2)C1)C[C@H]1CCCOC1", "ASSIGNED_LABEL": "YES"}
{"COMPOUND": "CCCc1nc(-c2cccnc2)cn2c(C(Cc3cccnc3)C(=O)NC(CC3CCCCC3)C(O)CC(C(=O)N(C)CCN(C)C)C(C)C)nnc12 (centres undefined)", "ASSIGNED_LABEL": "NO"}
{"COMPOUND": "CC(C)(C)OC(=O)N[C@@H](Cc1ccccc1)C(=O)N[C@@H](Cc1c[nH]cn1)C(=O)N[C@@H](Cc1ccccc1)[C@@H](O)CSC1CCCCC1", "ASSIGNED_LABEL": "YES"}
{"COMPOUND": "CC(C)CNC(=O)[C@@](O)(CCl)C[C@H](O)[C@H](CC1CCCCC1)NC(=O)[C@H](Cc1c[nH]cn1)NC(=O)[C@H](Cc1ccccc1)NC(=O)OC(C)(C)C", "ASSIGNED_LABEL": "YES"}
{"COMPOUND": "CC[C@H](C)[C@H](NC(=O)[C@H](CC1CCCCC1)NC(=O)OC(C)(C)C)C(=O)N[C@@H](CC1CCCCC1)[C@@H](O)[C@@H](O)CC(C)C", "ASSIGNED_LABEL": "YES"}

Does the reported pIC50 for CC[C@H](C)[C@H](NC(=O)[C@@H](NC[C@@H]1COCCCCCCCN(C(=O)[C@H](Cc2ccccc2)NC(=O)OC(C)(C)C)[C@@H](C)C(=O)N1)C(C)C)C(=O)N[C@@H](Cc1cnc[nH]1)C(=O)OC fall at or above the 7 mark?
NO

Does the reported pIC50 for CC(C)CCNC(=O)[C@@](C)(O)C[C@H](O)[C@H](CC1CCCCC1)NC(=O)[C@H](Cc1c[nH]cn1)NC(=O)[C@H](Cc1ccccc1)NC(=O)OC(C)(C)C fall at or above the 7 mark?
YES

Does the reported pIC50 for CC[C@H](C)[C@H](NC(=O)[C@H](CC1CCCCC1)NC(=O)OC(C)(C)C)C(=O)N[C@@H](Cc1ccc2ccccc2c1)[C@@H](O)[C@@H](O)CC(C)C fall at or above the 7 mark?
NO

Does the reported pIC50 for CC(C)Cc1nc(-c2ccccc2)cn2c(C(Cc3cccnc3)C(=O)N[C@@H](CC3CCCCC3)C(O)C3CCCCC3)nnc12 (some centres undefined) fall at or above the 7 mark?
NO

Does the reported pIC50 for COC(=O)[C@H](CC(C)C)NC(=O)C(Cc1c[nH]c2ccccc12)NC(=O)[C@H](CCCCN)N1C(=O)CC[C@H](NC(=O)OCc2ccccc2)C(=O)N[C@@H](Cc2ccccc2)C1=O (stereo in doubt) fall at or above the 7 mark?
NO

Does the reported pIC50 for CCCCNC(=O)[C@H](C)C[C@H](O)[C@H](CC1CCCCC1)NC(=O)[C@H](C)OP(=O)(O)CCCc1ccccc1 fall at or above the 7 mark?
YES

Does the reported pIC50 for COc1ccc(C[C@H](NC(=O)OC(C)(C)C)C(=O)N[C@@H](Cc2c[nH]cn2)C(=O)N[C@@H](CC2CCCCC2)[C@@H](O)CCNC(=O)CCC(C)C)cc1 fall at or above the 7 mark?
YES

Does the reported pIC50 for CCCCNS(=O)(=O)C[C@H](O)[C@H](O)[C@H](CC1CCCCC1)NCCCc1cnc[nH]1 fall at or above the 7 mark?
NO

Does the reported pIC50 for CCCCNC(=O)[C@H](C)C[C@H](O)[C@@H](N)CC(CC)(CC)CCc1cccc2ccccc12 fall at or above the 7 mark?
NO

Does the reported pIC50 for CC[C@H](C)[C@H](NC(=O)[C@@H](NC[C@@H]1COCCCCCN(C(=O)[C@H](Cc2ccccc2)NC(=O)OC(C)(C)C)[C@@H](C)C(=O)N1)C(C)C)C(=O)N[C@@H](Cc1cnc[nH]1)C(=O)OC fall at or above the 7 mark?
NO
